Tested on: SF-268 CNS
Protocol: NCI tumour cell line growth inhibition, 48 h; in the data active means GI50 below about 0.43 µM; inactive means the rest
Please state which outcome applies, choosing from T (active), F (inactive)

Consider the worked cases shown below.
ClCc1cccc(CSc2ncnc3c2ncn3Cc2cccc(CCl)c2)c1 : F
N#CN1CC[C@H](C(=O)Nc2cc3cc(C(N)=O)ccc3cn2)C1 : T
Nc1ccccc1C#C/C=C\C#Cc1c(F)c(F)c(F)c(F)c1F : F
COc1ccc(Cn2cc3c(c2-c2ccccc2)CCc2cnoc2-3)cc1N : F
COc1cc(NCCN=C(N)NC(N)=NC(C)C)c2ncccc2c1 : F

Alright, here's another molecule for you.
For this molecule, state the assay outcome: Cc1c(C(N)=O)sc2c1c(=O)n(Cc1ccccc1)c1nnc(-c3ccc(Br)cc3)n21
F

---

Tested on: MALME-3M melanoma
Protocol: NCI tumour cell line growth inhibition, 48 h
Value Kind: TGI (µM)
Express the result in µM but write the number alone.

Tell me TGI of Cc1ccc2oc3c(c(Br)c(Br)n3C)c(=O)c2c1 when tested on MALME-3M melanoma.
70.5

Tell me TGI of COC(=O)[C@@H]1CC(C(CN)c2cn(C(=O)OC(C)(C)C)c3ccccc23)C(=O)N1C(=O)OC(C)(C)C (stereo not given in full) when tested on MALME-3M melanoma.
54.1

Tell me TGI of COP(=O)(OC)/C(=C/c1cn(C(c2ccccc2)(c2ccccc2)c2ccccc2)cn1)NC=O when tested on MALME-3M melanoma.
38.5

Tell me TGI of CO[C@@H]1C[C@H](OC(N)=O)[C@@H]2C=C[C@@H]3/C=C(C)/C=C/[C@@H](C)[C@H](/C(C)=C/[C@@H](C)NC(C)=O)OC(=O)/C=C/C=C(C)\C=C\[C@]3(C)[C@@H]2C1 when tested on MALME-3M melanoma.
0.798

Tell me TGI of COC(=O)/C=C\C(C#N)(C#N)N=Cc1sccc1C when tested on MALME-3M melanoma.
11.3

---

System: MDA-MB-435
Protocol: NCI tumour cell line growth inhibition, 48 h
Value Kind: GI50

Identify measured GI50 associated with CC(=O)c1cc(C(=O)c2ccc3c(c2)Sc2ccccc2N3)c2c(C)cccn12
46.4 nM

Identify measured GI50 associated with Cc1cnc(Nc2ccc(N3CCN(C)CC3)cc2)nc1Nc1ccc(Cl)c(NS(=O)(=O)C(C)(C)C)c1
170 nM

Identify measured GI50 associated with COc1ccc(C(CC(=O)c2ccccc2)C(C(=O)c2ccccc2)C(c2ccc(OC)cc2)C2C(=O)NC(=S)NC2=O)cc1 (stereo unspecified)
10600 nM

Identify measured GI50 associated with CCS(=O)(=O)c1ccc(OC)c(Nc2ncc(-c3ccccc3Cl)o2)c1
6730 nM

Identify measured GI50 associated with O=c1oc2ccc(-c3ccc(F)cc3F)cc2c(=O)n1-c1ccc(Cl)c(C(F)(F)F)c1
3070 nM

Identify measured GI50 associated with O=C(NCc1ccco1)c1cccc(NC2=C(Cl)C(=O)N(Cc3ccccc3)C2=O)c1
2330 nM

---

Test system: SF-539 CNS
Protocol: NCI tumour cell line growth inhibition, 48 h; in the data active = GI50 below about 0.43 µM; inactive = the rest
Please state which outcome applies, choosing from active, inactive

COc1cc(-n2ccnc2)cc(OC)c1OC : inactive
CCOC(=O)c1ccc2c(c1)[n+](=O)c(C(C)=O)c(C(F)(F)F)n2[O-] : inactive

For this molecule, state the assay outcome: Nc1nc(=O)n([C@@H]2CS[C@H](CO)O2)cc1F
inactive

For this molecule, state the assay outcome: c1ccc([As]=[As]c2ccccc2)cc1 (stereo unspecified)
inactive

For this molecule, state the assay outcome: CC1=C[C@H]2C[C@H](C)[C@H]3CC[C@H](C)[C@]4(C1)C(=O)C(O)=C(C)C(=O)[C@@]324
inactive

For this molecule, state the assay outcome: NC(=S)N=Nc1c(O)c2ccccc2c2ccccc12
inactive

For this molecule, state the assay outcome: CCOC(=O)c1cnn2c3ccccc3n(S(=O)(=O)c3ccc(OC)cc3)c12
active

For this molecule, state the assay outcome: COc1ccc(Cn2cc3c(c2-c2ccccc2)CCc2cnoc2-3)cc1N
active

For this molecule, state the assay outcome: Nc1ccccc1C#C/C=C\C#Cc1c(F)c(F)c(F)c(F)c1F
inactive

For this molecule, state the assay outcome: Cc1cc(Nc2cc(N3CCN(C)CC3)nc(Sc3ccc(NC(=O)C4CC4)cc3)n2)n[nH]1
inactive

---

Tested on: MCF7 breast
Protocol: NCI tumour cell line growth inhibition, 48 h
Hi, to clarify the labels: 1 (yes) covers TGI from 3 µM upward, 0 (no) covers anything below 3 µM.

Consider the worked cases shown below.
CCOC(=O)c1ccc2c(c1)[n+](=O)c(C(C)=O)c(C(F)(F)F)n2[O-] : 0 (no)
Cc1nc2[nH]ncn2c(=O)c1CCO : 1 (yes)
CCC(O)c1ccc(N=Cc2ccccc2O)cc1 (stereo not given) : 1 (yes)
COc1ccc(Nc2nc3cc(N)cc(N)c3nc2-c2ccccc2)cc1OC : 1 (yes)
Oc1[nH]c2ccccc2c1N=Nc1c(F)c(F)c(F)c(F)c1F : 1 (yes)
Cc1cc(Cl)ccc1Nc1nc(C(F)(F)F)ccc1C(=O)N/N=C/c1ccccc1Cl : 1 (yes)
Nc1nc(=O)n([C@@H]2CS[C@H](CO)O2)cc1F : 1 (yes)
CC1CN=C(c2cccc(-c3nc(-c4cccc(C5=NCC(C)N5)c4)nc(N(C)C)n3)c2)N1 (stereo not given) : 1 (yes)
O=C(Nc1ccccc1O)c1ccc(NS(=O)(=O)c2cccc3cccnc23)cc1 : 1 (yes)

Alright, here's another molecule for you.
Can O=C1c2ccccc2C(=O)c2c(NCC3CO3)ccc(NCC3CO3)c21 (stereo not given) be said to have TGI at or above 3 µM?
0 (no)

---

Test system: UO-31 renal
Protocol: NCI tumour cell line growth inhibition, 48 h; in the data active = GI50 below about 0.43 µM; inactive = the rest
Please state which outcome applies, choosing from yes (1) (active), no (0) (inactive)

Consider the worked cases shown below.
COc1cccc(C2C3=C(COC3=O)N(CCO)c3cc4c(cc32)OCO4)c1 (stereo not drawn) : yes (1)
COc1ccc(C(CC(=O)c2ccccc2)C(C(=O)c2ccccc2)C(c2ccc(OC)cc2)C2C(=O)NC(=S)NC2=O)cc1 (stereo not drawn) : no (0)

Alright, here's another compound for you.
For this compound, state the assay outcome: Cc1ccc(-c2nc([P+](c3ccccc3)(c3ccccc3)c3ccccc3)c(Nc3ccccc3)o2)cc1
yes (1)

---

Parameter TGI: see the listing below.
Tested on: SNB-19 CNS
Protocol: NCI tumour cell line growth inhibition, 48 h
Express the result in µM but write the number alone.

COc1ccc(C2C=C(c3ccc(Cl)cc3)N=C3SC=C(C)N32)c(Br)c1 (centres undefined) : 21.7

Identify measured TGI associated with COc1ccc2c3c1OC1C34CCN(C)C(C2)C4=CC(I)C1(OC)OC (centres undefined)
30.5

Identify measured TGI associated with C=CCc1cc(C(Cc2ccccc2)NC(C)C)cc(OCc2ccccc2)c1OCc1ccccc1 (centres undefined)
28.8

Identify measured TGI associated with CO[C@@H]1C[C@H](OC(N)=O)[C@@H]2C=C[C@@H]3/C=C(C)/C=C/[C@@H](C)[C@H](/C(C)=C/[C@@H](C)NC(C)=O)OC(=O)/C=C/C=C(C)\C=C\[C@]3(C)[C@@H]2C1
10.2

Identify measured TGI associated with C=C(C)C(=O)O[C@@H]1C/C(C)=C\[C@H](OC(C)=O)C[C@](C)(O)/C=C2/OC(=O)C(COC(C)=O)=C21
41.8

Identify measured TGI associated with CCOc1ccc(O)cc1[P+](c1ccccc1)(c1ccccc1)c1ccccc1
24.5

---

Parameter TGI: see the listing below.
Tested on: DU-145 prostate
Protocol: NCI tumour cell line growth inhibition, 48 h

C[C@@H]1COCCN1c1cc(C2([S@@](C)(=N)=O)CC2)nc(-c2ccnc3[nH]ccc23)n1 : > 100 µM
Cn1c(=S)c2[nH]c(SCCN3C(=O)c4ccccc4C3=O)nc2n(C)c1=O : > 100 µM
NC(Cc1ncccn1)C(=O)O (configuration not stated) : > 100 µM

Tell me TGI of O=S(=O)(O)c1ccc2c(N=Nc3ccc(Cl)cc3)c(O)ccc2c1 when tested on DU-145 prostate.
> 100 µM

Tell me TGI of CC1=C[C@H]2C[C@H](C)[C@H]3CC[C@H](C)[C@]4(C1)C(=O)C(O)=C(C)C(=O)[C@@]324 when tested on DU-145 prostate.
> 100 µM

Tell me TGI of COc1cc2c(=O)n(CCN(C)C)c3c4cc5c(cc4ccc3c2cc1OC)OCO5 when tested on DU-145 prostate.
6.27 µM

---

Test system: HT29 colon
Protocol: NCI tumour cell line growth inhibition, 48 h
Parameter TGI: see the listing below.

O=c1[nH]c(=O)n(C2CC(O)C(CO)O2)cc1C#Cc1ccc(F)cc1 (stereo not given) : > 100 µM
O=S(=O)(O)Oc1cc2c(c(OS(=O)(=O)O)c1)C[C@H](OS(=O)(=O)O)[C@@H](c1ccc(OS(=O)(=O)O)c(OS(=O)(=O)O)c1)O2 : > 100 µM
CCOC(=O)C(CNc1ccc(O)cc1)NC(=O)c1ccccc1 (stereo not given) : > 100 µM

Identify measured TGI associated with CNC(=O)OC(COC)CN1CCN(c2ccccc2C)CC1 (stereo not given)
> 10 µM

Identify measured TGI associated with CC(=O)NNc1nc(C)c(C(=O)NNC(=O)C(=O)Nc2ccc([N+](=O)[O-])cc2C#N)s1
> 100 µM

Taken from PubChem BioAssay (NCI).
